tested on: MCF7; assay: NCI tumour cell line growth inhibition, 48 h
Activity calls are given as the source filed them. Cut-off read from the data, not from the text of the source: active = GI50 up to about 1.1 µM and inactive = higher.
Property: GI50; scope: individual compounds

Recorded GI50, per entry:
N#CC(C#N)=C(N)/C(C#N)=C/c1ccc2ccccc2n1: 30.7 µM (inactive)
COc1ccc(/C=C(\C(=C/c2ccc(OC)cc2)[N+](=O)[O-])[N+](=O)[O-])cc1: 6.31 µM (inactive)
C[C@H]1CN[C@@H]2[C@@H](C)[C@H]3[C@@H](C[C@H]4[C@@H]5CC[C@H]6C[C@@H](N)CC[C@]6(C)[C@H]5CC[C@]34C)O[C@@]2(O)C1: 4.18 µM (inactive)
O=C(/N=C1/OC(CN2CCOCC2)CN1C(=O)Nc1ccccc1)Nc1ccccc1 (stereo not given): > 100 µM (inactive)
CC(=O)OC(=C(C#N)C#N)c1nccnc1C(=O)O: > 100 µM (inactive)
CCCCCCC(=O)c1ccc2ccccc2c1O: 33.4 µM (inactive)
Cn1c2ccc([N+](=O)[O-])cc2c(=O)c2c(O)cc(O)cc21: 13.7 µM (inactive)
CC(=O)OCCC1c2ccccc2-n2nc(-c3ccccc3)c(O)c21 (stereo not given): 7.11 µM (inactive)
Cn1c2ccccc2c2c3c(c4c5ccccc5n(C)c4c21)C(=O)N(c1ccccc1)C3=O: > 100 µM (inactive)

# ---- query compound ----
# input Return reported GI50; argument: O=C1Nc2ccccc2/C1=N/Nc1c(F)c(F)c(F)c(F)c1F
# output 36.6 µM (inactive)

====

Property: GI50; scope: individual compounds
test system: SNB-19; experiment: NCI tumour cell line growth inhibition, 48 h
The source made the active and inactive calls. No stated cut-off is given here; in the data, active = GI50 up to about 1.1 µM and inactive = higher.

O=C1C(=O)c2ccccc2C=C1[N+](=O)[O-]: > 100 µM (inactive)
COC(=O)C(=O)C(C(C)=O)C(=O)NCc1ccc(OC)c(OC)c1 (stereo not given): > 100 µM (inactive)

# ---- query compound ----
# input Return reported GI50; argument: COC(=O)C1=C(O)C(C(=O)OC)[C@]2(O)[C@@H](C(=O)OC)[C@H]1[C@H](C)[C@@H](c1ccccc1)[C@@H]2C(=O)OC (stereo not given in full)
# output > 100 µM (inactive)

====

tested on: A498; assay: NCI tumour cell line growth inhibition, 48 h
The source made the active and inactive calls. No stated cut-off is given here; in the data, active = GI50 up to about 1.1 µM and inactive = higher.
Permitted responses: 1 (yes) for active, 0 (no) for inactive

For orientation, consider the following solved cases.
CCCCCCCCCCCCCCCCCCNc1nc(=O)n(C2CC(OP(=O)(O)OCC3OC(n4cc(F)c(=O)[nH]c4=O)CC3O)C(CO)O2)cc1F (stereo not drawn): 0 (no)
Cn1c(C(C#N)c2nc(Cl)ncc2Br)nc2ccccc21 (stereo not drawn): 0 (no)
Cc1n[nH]c(=O)n1N1C(=O)c2ccccc2C1=O: 0 (no)
CSc1c(C#N)c(N)nc2c(/N=N\c3ccc(Br)cc3)c(N)nn12: 0 (no)
NS(=O)(=O)c1ccc(NS(=O)(=O)c2ccc(NC(=O)N(c3ccccc3)c3ccccc3)cc2)cc1: 0 (no)

# input What was the test verdict on CC(=O)OCCC1c2ccccc2-n2nc(-c3ccccc3)c(O)c21 (stereo not drawn) ?
# output 0 (no)

====

Property: GI50; scope: individual compounds
system: UO-31; experiment: NCI tumour cell line growth inhibition, 48 h
The source made the active and inactive calls. No stated cut-off is given here; in the data, active = GI50 up to about 1.1 µM and inactive = higher.

CCOC(=O)c1c(NC(=O)OC)c(C#N)c2n1CCCCC2: > 100 µM (inactive)
O=C1Nc2ccccc2/C1=N/Nc1c(F)c(F)c(F)c(F)c1F: 17.1 µM (inactive)
CCOC(=O)[C@H](C)OC(=O)[C@@](C)(NC(=O)c1ccccc1C(=O)OC)[C@@H]1NC=C(C(=O)OC)CS1: > 100 µM (inactive)
O=C(O)C(C1NCCS1)N1C(=O)c2ccccc2C1=O (stereo not given): > 100 µM (inactive)
CC(C)(OCc1ccccc1)c1ccccc1P(c1ccccc1)c1ccccc1: 87.7 µM (inactive)
COc1ccc([N+](=O)[O-])c2c(NCC(O)CO)ccnc12 (stereo not given): 63.1 µM (inactive)

# input Find the measured GI50: item COC(=O)c1cc2c(cc1CC1Cc3cc4c(cc3C1=O)CCC4)CCC2 (stereo not given) , target or system UO-31.
# output > 100 µM (inactive)

# input Find the measured GI50: item N#CCC(=O)N/N=C1/C(=O)NC(=O)C(=O)C1c1nc2ccccc2s1 (stereo not given) , target or system UO-31.
# output > 100 µM (inactive)

# input Find the measured GI50: item CCOC(=O)/C=C(\C)c1ccc(Cl)cc1 , target or system UO-31.
# output > 100 µM (inactive)

# input Find the measured GI50: item CC(=O)Nc1cc2cc(NS(=O)(=O)c3cc(C(F)(F)F)cc(C(F)(F)F)c3)ccc2oc1=O , target or system UO-31.
# output > 100 µM (inactive)

====

Property: GI50; scope: individual molecules
system: OVCAR-4; experiment: NCI tumour cell line growth inhibition, 48 h
The source made the active and inactive calls. Rule as the data show it: active = GI50 up to about 1.1 µM and inactive = higher.

COC(CCC[N+](C)(C)C)CC[N+](C)(C)C (stereo not given): > 100 µM (inactive)

# input Find the measured GI50: item Clc1ccc(/C=C/c2nc(Cl)c(-c3ccc(Cl)cc3)c(Cl)n2)cc1 , target or system OVCAR-4.
# output 71.6 µM (inactive)

# input Find the measured GI50: item O=C(COc1ccc(Cl)c(Cl)c1)N(Cc1ccccc1)Cc1ccc[n+](Cc2ccc(Cl)cc2S(=O)(=O)F)c1 , target or system OVCAR-4.
# output > 100 µM (inactive)

====

test system: M14; test: NCI tumour cell line growth inhibition, 48 h
Calls of active or inactive are those of the source. Rule as the data show it: active = GI50 up to about 1.1 µM and inactive = higher.
reported.property: GI50

Cn1cc(NC(=O)c2cc(NC(=O)CCCCCCCCCCC(=O)Nc3cc(C(=O)Nc4cc(C(=O)NCCC(=N)N)n(C)c4)n(C)c3)cn2C)cc1C(=O)NCCC(=N)N: 28.2 µM (inactive)
OC1[C@H](O)CN(OCc2ccccc2)C[C@@H]1O (stereo not given in full): > 100 µM (inactive)
Cc1ccc(NC(=O)COc2ccc(Cl)cc2)cc1Cl: 47.1 µM (inactive)
CC1(C)OC2OC(COC(=O)c3ccc(C#N)cc3)C3OC(C)(C)OC3C2O1 (stereo not given): > 75 µM (inactive)
COC(=O)Cc1c([C@H]2[C@H](CC(=O)OC)c3ccccc3N2S(=O)(=O)c2ccc(C)cc2)[nH]c2ccccc12: > 100 µM (inactive)
COc1c(O)cc(C(=O)O[C@@H]2Cc3c(O)cc(O)cc3O[C@@H]2c2cc(O)c(O)c(O)c2)cc1O: 59.4 µM (inactive)
COc1ccccc1-c1cc(=O)c2ccc(OC)c(OC)c2o1: 64.3 µM (inactive)
O=C1c2ccccc2N2OC3(N4CCOCC4)CCCC3C12c1ccccc1 (stereo not given): > 100 µM (inactive)

# input Return reported GI50; argument: CN(C)c1ccc(C(=NN)c2ccc(N(C)C)cc2)cc1
# output 0.504 µM (active)

# input Return reported GI50; argument: CCOc1ccccc1N1C(=O)C(=O)C(c2nc3ccccc3s2)C(=O)C1=O
# output > 100 µM (inactive)

====

system: HOP-92; experiment: NCI tumour cell line growth inhibition, 48 h
The source made the active and inactive calls. Cut-off read from the data, not from the text of the source: active = GI50 up to about 1.1 µM and inactive = higher.
Permitted responses: active, inactive

O=C1/C(=C/c2ccco2)N=C(c2ccccc2)N1c1ccc(S(=O)(=O)Nc2nccs2)cc1: inactive
N#CC(NCCO)=C1C(=O)c2ccccc2C1=O: inactive

Now for a further molecule.
# input What was the test verdict on Cc1ccc2c(O)c3c(cc2c1)C(=O)c1c2c(cc(O)c1C3=O)C1(C)OC(O2)C(O)C(N(C)C)C1O (stereo not drawn) ?
# output active

====

test system: RPMI-8226; experiment: NCI tumour cell line growth inhibition, 48 h
The source made the active and inactive calls. Cut-off read from the data, not from the text of the source: active = GI50 up to about 1.1 µM and inactive = higher.
Permitted responses: active, inactive

For orientation, consider the following solved cases.
Cc1ccc(S(=O)(=O)c2ccsc2NC(=O)c2ccccc2)cc1: inactive
O=C1O/C(=C(\Br)c2cccc3ccccc23)c2ccccc21: inactive
O=S(=O)(N/N=C/c1ccc(/C=N/NS(=O)(=O)c2ccccc2)cc1)c1ccccc1: inactive
COC(=O)c1cc2c(cc1CC1Cc3cc4c(cc3C1=O)CCC4)CCC2 (configuration not stated): inactive
COC(CCC[N+](C)(C)C)CC[N+](C)(C)C (configuration not stated): inactive
C=C(CCOC)CCC1CCCCC(=C)[C@H]1O (some centres not stated): inactive

# input What was the test verdict on O=[N+]([O-])c1cc2oc(COc3ccccc3)nc2cc1Cl ?
# output inactive

# input What was the test verdict on O=C(COc1ccc(Cl)c(Cl)c1)N(Cc1ccccc1)Cc1ccc[n+](Cc2ccc(Cl)cc2S(=O)(=O)F)c1 ?
# output inactive

# input What was the test verdict on CCOc1nc(N)nc(C)c1/N=N/c1ccc(Cl)cc1 ?
# output inactive

# input What was the test verdict on CC1(C)CNC(c2ccc3c(c2)Cc2cc(C4=NC(C)(C)CN4)ccc2-3)=N1 ?
# output inactive

# input What was the test verdict on C[C@H]1CN[C@@H]2[C@@H](C)[C@H]3[C@@H](C[C@H]4[C@@H]5CC[C@H]6C[C@@H](N)CC[C@]6(C)[C@H]5CC[C@]34C)O[C@@]2(O)C1 ?
# output inactive

# input What was the test verdict on C1=Cc2ccccc2C1.C=C(C)c1ccccc1.[N-]=[N+]=Nc1ccccc1 ?
# output inactive

# input What was the test verdict on CC1=C(N2CC2)C(=O)C(C)=C(N2CC2)C1=O ?
# output active

# input What was the test verdict on O=c1ccc2ccc(O)cc2o1 [UMBELLIFERONE] ?
# output inactive
